Tested on: Chinese hamster V79-379 lung fibroblasts
procedure_text: Uptake of phthalocyanines into V79 cells
condition_notes: V79 cells; average of all data; asterisk: listed value is for 1 μM, average would be higher
Marks after values point to notes of the source that are not given here.
property_name: n Moles/10^6 Cells/μM (composite uptake value)

Consider the following illustrative entries.
CCCCN(CCCC)CCC[Si](C)(C)O[Si]1(O)n2c3c4ccccc4c2N=C2N=C(N=c4c5ccccc5c(n41)=NC1=NC(=N3)c3ccccc31)c1ccccc12 (centres unmarked) ... <0.05* n Moles/10^6 Cells/μM
CCN(CCC[Si](C)(C)O[Si]1(O[Si](C)(C)CCCN(CC)CCN(C)C)n2c3c4ccccc4c2N=C2N=C(N=c4c5ccccc5c(n41)=NC1=NC(=N3)c3ccccc31)c1ccccc12)CCN(C)C ... 0.3* n Moles/10^6 Cells/μM
CCCCCCCCCCCC[N+](C)(C)CCC[Si](C)(C)O[Si]1(O[Si](C)(C)CCC[N+](C)(C)CCCCCCCCCCCC)n2c3c4ccccc4c2N=C2N=C(N=c4c5ccccc5c(n41)=NC1=NC(=N3)c3ccccc31)c1ccccc12 ... <0.05 n Moles/10^6 Cells/μM

Challenge: Please provide the recorded n Moles/10^6 Cells/μM (composite uptake value) for CCN(CC)c1ccc2c(c1)Oc1cc(N(CC)CC)ccc1C21c2ccccc2C(=O)N1CCCC[Si](C)(C)O[Si]1(O[Si](C)(C)C(C)(C)C)n2c3c4ccccc4c2N=C2N=C(N=c4c5ccccc5c(n41)=NC1=NC(=N3)c3ccccc31)c1ccccc12 (centres unmarked) , tested on Chinese hamster V79-379 lung fibroblasts.
Response given: <0.05 n Moles/10^6 Cells/μM

Challenge: Please provide the recorded n Moles/10^6 Cells/μM (composite uptake value) for C[Si](C)(CCCN1CCSCC1)O[Si]1(O)n2c3c4ccccc4c2N=C2N=C(N=c4c5ccccc5c(n41)=NC1=NC(=N3)c3ccccc31)c1ccccc12 (centres unmarked) , tested on Chinese hamster V79-379 lung fibroblasts.
Response given: <0.05* n Moles/10^6 Cells/μM
